- System: 993429-296-R-J1-PDC complex spheroid growth, percent test/control;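 also: spheroids exposed to compounds for seven days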
- Test protocol: Anticancer human tumor 993429-296-R-J1-PDC patient-derived uterine sarcoma cell line growth inhibition [Asc]
- Conditions: second compound 1 µM; first compound 0.0316 µM; active compounds read low
Please use 1 for viability, T/C under 40% and 0 for everything else, ties included.

{"Molecule": "COc1c(OCCCN2CCOCC2)ccc2c3n(c(=NC(=O)c4cnc(N)nc4)nc12)CCN3 + CNC(C)C(=O)NC1CN(S(=O)(=O)c2cccc(S(=O)(=O)N3CCC4CCC(C(=O)NC(c5ccccc5)c5ccccc5)N4C(=O)C(NC(=O)C(C)NC)C3)c2)CCC2CCC(C(=O)NC(c3ccccc3)c3ccccc3)N2C1=O", "Subject of test": "993429-296-R-J1-PDC complex spheroid growth, percent test/control", "Classification": 1}
{"Molecule": "CNC(C)C(=O)NC1CN(S(=O)(=O)c2cccc(S(=O)(=O)N3CCC4CCC(C(=O)NC(c5ccccc5)c5ccccc5)N4C(=O)C(NC(=O)C(C)NC)C3)c2)CCC2CCC(C(=O)NC(c3ccccc3)c3ccccc3)N2C1=O (configuration not stated) + Cc1c(S(C)(=O)=O)c(-c2cc(F)cc(N3CCN(c4ccc(NS(=O)(=O)c5ccc(NC(CCN6CCC(C(=O)OCCCP(=O)(O)O)CC6)CSc6ccccc6)c(S(=O)(=O)C(F)(F)F)c5)cc4)CC3)c2)c(-c2ccc(Cl)cc2)n1C(C)C", "Subject of test": "993429-296-R-J1-PDC complex spheroid growth, percent test/control", "Classification": 0}
{"Molecule": "COc1c(OCCCN2CCOCC2)ccc2c3n(c(=NC(=O)c4cnc(N)nc4)nc12)CCN3 + Cc1c(S(C)(=O)=O)c(-c2cc(F)cc(N3CCN(c4ccc(NS(=O)(=O)c5ccc(NC(CCN6CCC(C(=O)OCCCP(=O)(O)O)CC6)CSc6ccccc6)c(S(=O)(=O)C(F)(F)F)c5)cc4)CC3)c2)c(-c2ccc(Cl)cc2)n1C(C)C", "Subject of test": "993429-296-R-J1-PDC complex spheroid growth, percent test/control", "Classification": 1}
{"Molecule": "Cn1ncnc1[C@H]1c2n[nH]c(=O)c3cc(F)cc(c23)N[C@@H]1c1ccc(F)cc1 + CNC(C)C(=O)NC1CN(S(=O)(=O)c2cccc(S(=O)(=O)N3CCC4CCC(C(=O)NC(c5ccccc5)c5ccccc5)N4C(=O)C(NC(=O)C(C)NC)C3)c2)CCC2CCC(C(=O)NC(c3ccccc3)c3ccccc3)N2C1=O", "Subject of test": "993429-296-R-J1-PDC complex spheroid growth, percent test/control", "Classification": 1}
{"Molecule": "C=CC(=O)N1CCN(c2nc(=O)n(-c3c(C)ccnc3C(C)C)c3nc(-c4c(O)cccc4F)c(F)cc23)C(C)C1 (configuration not stated) + CNC(C)C(=O)NC1CN(S(=O)(=O)c2cccc(S(=O)(=O)N3CCC4CCC(C(=O)NC(c5ccccc5)c5ccccc5)N4C(=O)C(NC(=O)C(C)NC)C3)c2)CCC2CCC(C(=O)NC(c3ccccc3)c3ccccc3)N2C1=O", "Subject of test": "993429-296-R-J1-PDC complex spheroid growth, percent test/control", "Classification": 0}
{"Molecule": "O=C(c1cc(Cc2n[nH]c(=O)c3ccccc23)ccc1F)N1CCN(C(=O)C2CC2)CC1 + CNC(C)C(=O)NC1CN(S(=O)(=O)c2cccc(S(=O)(=O)N3CCC4CCC(C(=O)NC(c5ccccc5)c5ccccc5)N4C(=O)C(NC(=O)C(C)NC)C3)c2)CCC2CCC(C(=O)NC(c3ccccc3)c3ccccc3)N2C1=O", "Subject of test": "993429-296-R-J1-PDC complex spheroid growth, percent test/control", "Classification": 0}
{"Molecule": "C=CC(=O)N1CCN(c2nc(=O)n(-c3c(C)ccnc3C(C)C)c3nc(-c4c(O)cccc4F)c(F)cc23)C(C)C1 (configuration not stated) + Cc1c(S(C)(=O)=O)c(-c2cc(F)cc(N3CCN(c4ccc(NS(=O)(=O)c5ccc(NC(CCN6CCC(C(=O)OCCCP(=O)(O)O)CC6)CSc6ccccc6)c(S(=O)(=O)C(F)(F)F)c5)cc4)CC3)c2)c(-c2ccc(Cl)cc2)n1C(C)C", "Subject of test": "993429-296-R-J1-PDC complex spheroid growth, percent test/control", "Classification": 0}
{"Molecule": "O=C(c1ccc(F)c(F)c1Nc1ccc(I)cc1F)N1CC(O)([C@@H]2CCCCN2)C1 + CNC(C)C(=O)NC1CN(S(=O)(=O)c2cccc(S(=O)(=O)N3CCC4CCC(C(=O)NC(c5ccccc5)c5ccccc5)N4C(=O)C(NC(=O)C(C)NC)C3)c2)CCC2CCC(C(=O)NC(c3ccccc3)c3ccccc3)N2C1=O", "Subject of test": "993429-296-R-J1-PDC complex spheroid growth, percent test/control", "Classification": 0}
{"Molecule": "C#Cc1c(F)ccc2cc(O)cc(-c3ncc4c(N5CC6CCC(C5)N6)nc(OCC56CCCN5CC(F)C6)nc4c3F)c12 (configuration not stated) + Cc1c(S(C)(=O)=O)c(-c2cc(F)cc(N3CCN(c4ccc(NS(=O)(=O)c5ccc(NC(CCN6CCC(C(=O)OCCCP(=O)(O)O)CC6)CSc6ccccc6)c(S(=O)(=O)C(F)(F)F)c5)cc4)CC3)c2)c(-c2ccc(Cl)cc2)n1C(C)C", "Subject of test": "993429-296-R-J1-PDC complex spheroid growth, percent test/control", "Classification": 0}
{"Molecule": "O=C(c1ccc(F)c(F)c1Nc1ccc(I)cc1F)N1CC(O)([C@@H]2CCCCN2)C1 + Cc1c(S(C)(=O)=O)c(-c2cc(F)cc(N3CCN(c4ccc(NS(=O)(=O)c5ccc(NC(CCN6CCC(C(=O)OCCCP(=O)(O)O)CC6)CSc6ccccc6)c(S(=O)(=O)C(F)(F)F)c5)cc4)CC3)c2)c(-c2ccc(Cl)cc2)n1C(C)C", "Subject of test": "993429-296-R-J1-PDC complex spheroid growth, percent test/control", "Classification": 1}
{"Molecule": "C=C(F)C(=O)N1CCN(c2nc(OCC3CCCN3C)nc3c2CCN(c2cccc4cccc(Cl)c24)C3)CC1CC#N (configuration not stated) + Cc1c(S(C)(=O)=O)c(-c2cc(F)cc(N3CCN(c4ccc(NS(=O)(=O)c5ccc(NC(CCN6CCC(C(=O)OCCCP(=O)(O)O)CC6)CSc6ccccc6)c(S(=O)(=O)C(F)(F)F)c5)cc4)CC3)c2)c(-c2ccc(Cl)cc2)n1C(C)C", "Subject of test": "993429-296-R-J1-PDC complex spheroid growth, percent test/control", "Classification": 0}
